Biological target: HCoV-OC43 nucleocapsid (N) protein WT (Human coronavirus OC43, UniProt P33469 1-448)
Sequence (P33469 whole entry): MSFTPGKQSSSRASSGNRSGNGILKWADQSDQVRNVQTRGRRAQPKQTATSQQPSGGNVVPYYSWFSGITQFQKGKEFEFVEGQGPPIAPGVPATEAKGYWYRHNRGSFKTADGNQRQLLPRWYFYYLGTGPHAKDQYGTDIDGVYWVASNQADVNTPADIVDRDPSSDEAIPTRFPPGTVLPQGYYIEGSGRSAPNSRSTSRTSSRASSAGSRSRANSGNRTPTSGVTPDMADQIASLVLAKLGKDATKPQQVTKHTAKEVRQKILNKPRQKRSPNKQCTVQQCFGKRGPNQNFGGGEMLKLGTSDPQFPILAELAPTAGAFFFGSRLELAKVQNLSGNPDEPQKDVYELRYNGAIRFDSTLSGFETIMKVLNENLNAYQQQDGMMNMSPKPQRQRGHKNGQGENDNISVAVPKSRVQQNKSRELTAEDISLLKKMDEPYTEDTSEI
Experiment: SPR
observed.property: pKd
Scale note: pKd = -log10(concentration in M).

Can you look up the measured pKd of UCUAAACUCUAAACUCUAAACUCUAAAC (ssRNA) [(UCUAAAC)4 repeated intergenic sequence] for me?
7.93
